Reference source: patent US20200079793A1

- MEASURED TARGET: A3R (Homo sapiens, UniProt P0DMS8)
- PROCEDURE DETAILS: Activity assay of adenosine receptor modulators, A3R cAMP (Table 1)
MEASURE NAME: IC50

Lookup: Which IC50 value is on record for Cc1nc2nc(N[C@@H](C)c3ccccn3)nc(C(=O)N3CC[C@H](O)C3)c2s1 [Example 17] ?
Found: > 1000 nM

Lookup: Which IC50 value is on record for Cc1nc2nc(N[C@@H](C)c3cncc(F)c3)nc(C(=O)N3CCCC3)c2s1 [Example 1] ?
Found: 100 to 1000 nM

Lookup: Which IC50 value is on record for Cc1nc2nc(N[C@@H](C)c3ccccn3)nc(C(=O)N3CCCC3)c2s1 [Example 9] ?
Found: 100 to 1000 nM

Lookup: Which IC50 value is on record for CC(=O)NCC1CN(C(=O)c2nc(N[C@@H](C)c3cncc(F)c3)nc3nc(C)sc23)C1 [Example 39] ?
Found: > 1000 nM

Lookup: Which IC50 value is on record for Cc1nc2nc(N[C@@H](C)c3cncc(F)c3)nc(C(=O)N3CC[C@H](O)C3)c2s1 [Example 4] ?
Found: > 1000 nM

Lookup: Which IC50 value is on record for Cc1nc2nc(N[C@@H](C)c3cccnc3)nc(C(=O)N3CC(NC(=O)C(C)(C)C)C3)c2s1 [Example 64] ?
Found: 100 to 1000 nM

Lookup: Which IC50 value is on record for COC[C@H]1CCN(C(=O)c2nc(N[C@@H](C)c3cncc(F)c3)nc3nc(C)sc23)C1 [Example 48] ?
Found: > 1000 nM

Lookup: Which IC50 value is on record for Cc1nc2nc(N[C@@H](C)c3cccnc3)nc(C(=O)N3CC[C@H](O)C3)c2s1 [Example 18] ?
Found: > 1000 nM

Lookup: Which IC50 value is on record for Cc1nc2nc(N[C@@H](C)c3cncc(F)c3)nc(C(=O)NCC3CCOCC3)c2s1 [Example 11] ?
Found: > 1000 nM

Lookup: Which IC50 value is on record for Cc1nc2nc(N[C@@H](C)c3cncc(F)c3)nc(C(=O)NC[C@@H](C)O)c2s1 [Example 3] ?
Found: 100 to 1000 nM

Lookup: Which IC50 value is on record for Cc1nc2nc(N[C@@H](C)c3cncc(F)c3)nc(C(=O)N3CC(NC(=O)Nc4ccccc4)C3)c2s1 [Example 65] ?
Found: 100 to 1000 nM

Lookup: Which IC50 value is on record for Cc1nc2nc(N[C@@H](C)c3cccnc3)nc(C(=O)N3CC(NC(=O)C4CCOCC4)C3)c2s1 [Example 82] ?
Found: > 1000 nM

Lookup: Which IC50 value is on record for Cc1nc2nc(N[C@@H](C)c3cncc(F)c3)nc(C(=O)N3CC(NC(=O)C4CCOCC4)C3)c2s1 [Example 68] ?
Found: 100 to 1000 nM

====

These molecules were tested on Adenosine A2A Receptor (Homo sapiens, UniProt P29274); IC50 is the recorded read-out.
Sequence (P29274 whole entry): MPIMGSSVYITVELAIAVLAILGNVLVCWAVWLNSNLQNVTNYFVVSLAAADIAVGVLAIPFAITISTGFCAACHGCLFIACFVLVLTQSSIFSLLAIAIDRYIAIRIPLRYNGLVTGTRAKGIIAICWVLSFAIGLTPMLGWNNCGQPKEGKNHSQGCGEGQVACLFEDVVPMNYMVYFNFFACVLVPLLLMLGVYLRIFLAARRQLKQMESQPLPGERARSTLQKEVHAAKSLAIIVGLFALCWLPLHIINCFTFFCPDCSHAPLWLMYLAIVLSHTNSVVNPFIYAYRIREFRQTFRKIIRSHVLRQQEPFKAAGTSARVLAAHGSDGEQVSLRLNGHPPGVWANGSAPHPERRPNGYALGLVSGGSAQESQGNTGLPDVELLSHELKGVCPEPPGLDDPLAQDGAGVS

Lookup: # query: IC50 | item Cc1cc(C)cc(C(=O)NC2CN(C(=O)c3nc(N[C@@H](C)c4cccnc4)nc4nc(C)sc34)C2)c1 [Example 83] | system: Adenosine A2A Receptor (Homo sapiens, UniProt P29274)
Found: < 100 nM

Lookup: # query: IC50 | item Cc1nc2nc(N[C@@H](C)c3cncc(F)c3)nc(C(=O)N3CC(NC(=O)C4CCOCC4)C3)c2s1 [Example 68] | system: Adenosine A2A Receptor (Homo sapiens, UniProt P29274)
Found: < 100 nM

Lookup: # query: IC50 | item Cc1nc2nc(N[C@@H](C)c3cccnc3)nc(C(=O)N[C@@H](C)c3cccnc3)c2s1 [Example 27] | system: Adenosine A2A Receptor (Homo sapiens, UniProt P29274)
Found: 100 to 1000 nM

Lookup: # query: IC50 | item Cc1nc2nc(N[C@@H](C)c3cncc(F)c3)nc(C(=O)N3CC(NC(=O)C4(C)CC4)C3)c2s1 [Example 54] | system: Adenosine A2A Receptor (Homo sapiens, UniProt P29274)
Found: < 100 nM

====

- MEASURED TARGET: A3R (Homo sapiens, UniProt P0DMS8)
- Sequence (P0DMS8 1-318): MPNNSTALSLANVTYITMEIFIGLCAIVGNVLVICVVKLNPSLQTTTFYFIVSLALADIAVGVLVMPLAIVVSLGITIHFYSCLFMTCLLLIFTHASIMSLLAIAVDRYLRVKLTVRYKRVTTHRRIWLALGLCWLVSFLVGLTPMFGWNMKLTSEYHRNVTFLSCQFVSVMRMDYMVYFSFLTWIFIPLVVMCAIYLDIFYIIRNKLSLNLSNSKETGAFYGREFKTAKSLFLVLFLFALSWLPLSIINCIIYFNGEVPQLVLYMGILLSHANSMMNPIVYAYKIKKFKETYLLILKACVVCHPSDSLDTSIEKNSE
- PROCEDURE DETAILS: Activity assay of adenosine receptor modulators, A3R cAMP (Table 1)
- Procedure: Compounds (e.g., adenosine receptor modulators) were tested for its biological activity. The assay results in Table 1 indicate (+ means >1 μM; ++ means 100 nM to 1 μM; +++ means <100 nM).
MEASURE NAME: IC50

Lookup: Which IC50 value is on record for `Cc1nc2nc(N[C@@H](C)c3cncc(F)c3)nc(C(=O)NCCC3CCNCC3)c2s1` ?
Found: > 1000 nM

Lookup: Which IC50 value is on record for `Cc1nc2nc(N[C@@H](C)c3ccccn3)nc(C(=O)N3CC(NC(=O)Nc4ccccc4)C3)c2s1` ?
Found: > 1000 nM

Lookup: Which IC50 value is on record for `Cc1nc2nc(N[C@@H](C)c3cccnc3)nc(C(=O)N3CCCC3)c2s1` ?
Found: 100 to 1000 nM

Lookup: Which IC50 value is on record for `Cc1nc2nc(N[C@@H](C)c3ccccn3)nc(C(=O)N3CC(NC(=O)NC(C)(C)C)C3)c2s1` ?
Found: 100 to 1000 nM

Lookup: Which IC50 value is on record for `CO[C@@H]1CCN(C(=O)c2nc(N[C@@H](C)c3cncc(F)c3)nc3nc(C)sc23)C1` ?
Found: > 1000 nM

Lookup: Which IC50 value is on record for `Cc1nc2nc(N[C@@H](C)c3ccccn3)nc(C(=O)N3CCC3)c2s1` ?
Found: 100 to 1000 nM

Lookup: Which IC50 value is on record for `COCCNC(=O)c1nc(N[C@@H](C)c2cncc(F)c2)nc2nc(C)sc12` ?
Found: > 1000 nM

Lookup: Which IC50 value is on record for `Cc1nc2nc(N[C@@H](C)c3cncc(F)c3)nc(C(=O)NC[C@@H]3CCOC3)c2s1` ?
Found: 100 to 1000 nM

Lookup: Which IC50 value is on record for `Cc1nc2nc(N[C@@H](C)c3cccnc3)nc(C(=O)N3CC(NC(=O)C4(C)CC4)C3)c2s1` ?
Found: 100 to 1000 nM

Lookup: Which IC50 value is on record for `Cc1nc2nc(N[C@@H](C)c3cccnc3)nc(C(=O)N3CC(NC(=O)C4CCC4)C3)c2s1` ?
Found: > 1000 nM

Lookup: Which IC50 value is on record for `Cc1nc2nc(N[C@@H](C)c3cncc(F)c3)nc(C(=O)N3CC(NC(=O)C(C)(C)C)C3)c2s1` ?
Found: < 100 nM

Lookup: Which IC50 value is on record for `Cc1nc2nc(N[C@@H](C)c3ccccn3)nc(C(=O)N3CC(NC(=O)C(C)(C)C)C3)c2s1` ?
Found: 100 to 1000 nM

Lookup: Which IC50 value is on record for `COC[C@@H]1CCN(C(=O)c2nc(N[C@@H](C)c3cncc(F)c3)nc3nc(C)sc23)C1` ?
Found: > 1000 nM

Lookup: Which IC50 value is on record for `Cc1nc2nc(N[C@@H](C)c3cncc(F)c3)nc(C(=O)N3CC(NC(=O)C4(C(F)(F)F)CC4)C3)c2s1` ?
Found: 100 to 1000 nM

Lookup: Which IC50 value is on record for `Cc1nc2nc(N[C@@H](C)c3cncc(F)c3)nc(C(=O)NCCc3ccc(S(N)(=O)=O)cc3)c2s1` ?
Found: > 1000 nM

Lookup: Which IC50 value is on record for `Cc1nc2nc(N[C@@H](C)c3cncc(F)c3)nc(C(=O)N3CC[C@H](CO)C3)c2s1` ?
Found: > 1000 nM

Lookup: Which IC50 value is on record for `Cc1nc2nc(N[C@@H](C)c3cccnc3)nc(C(=O)N3CC(NC(=O)C45CC6CC(CC(C6)C4)C5)C3)c2s1` ?
Found: 100 to 1000 nM

Lookup: Which IC50 value is on record for `Cc1nc2nc(N[C@@H](C)c3cccnc3)nc(C(=O)N3CC(NC(=O)c4cccc(F)c4)C3)c2s1` ?
Found: > 1000 nM

Lookup: Which IC50 value is on record for `Cc1nc2nc(N[C@@H](C)c3cncc(F)c3)nc(C(=O)N3CC(NC(=O)C4CCCC4)C3)c2s1` ?
Found: < 100 nM

Lookup: Which IC50 value is on record for `CC(=O)N[C@@H]1CCN(C(=O)c2nc(N[C@@H](C)c3cncc(F)c3)nc3nc(C)sc23)C1` ?
Found: > 1000 nM

Lookup: Which IC50 value is on record for `Cc1nc2nc(N[C@@H](C)c3cncc(F)c3)nc(C(=O)NC[C@H]3CCOC3)c2s1` ?
Found: > 1000 nM

Lookup: Which IC50 value is on record for `Cc1nc2nc(N[C@@H](C)c3cccnc3)nc(C(=O)N3CC[C@@H](O)C3)c2s1` ?
Found: > 1000 nM
